Values compiled from the supplement of paper PMC10307832.

test system: HCC-78; assay: relative viability (nuclei count vs DMSO), 5 days (fraction); higher = more cells survive; conditions: first compound 0.5 µM
The entries below are paired with their reported relative viability.

- Compound: "CC1(C)CCC(c2ccc(Cl)cc2)=C(CN2CCN(c3ccc(C(=O)NS(=O)(=O)c4ccc(N[C@H](CCN5CCOCC5)CSc5ccccc5)c(S(=O)(=O)C(F)(F)F)c4)cc3)CC2)C1 [Navitoclax] + N=C(N)NC(=N)NCCc1ccccc1 [Phenformin] (partner 250 µM)"
  relative viability: 0.75
- Compound: "CC1(C)CCC(c2ccc(Cl)cc2)=C(CN2CCN(c3ccc(C(=O)NS(=O)(=O)c4ccc(N[C@H](CCN5CCOCC5)CSc5ccccc5)c(S(=O)(=O)C(F)(F)F)c4)cc3)CC2)C1 [Navitoclax] + C[C@@H](Oc1cc(-c2cnn(C3CCNCC3)c2)cnc1N)c1c(Cl)ccc(F)c1Cl [Crizotinib] (partner 1 µM)"
  relative viability: 0.322
- Compound: "CC1(C)CCC(c2ccc(Cl)cc2)=C(CN2CCN(c3ccc(C(=O)NS(=O)(=O)c4ccc(N[C@H](CCN5CCOCC5)CSc5ccccc5)c(S(=O)(=O)C(F)(F)F)c4)cc3)CC2)C1 [Navitoclax] + C[C@]1(O)C[C@@H](c2nc(-c3ccc4ccc(-c5ccccc5)nc4c3)c3c(N)nccn32)C1 [Linsitinib] (partner 1 µM)"
  relative viability: 0.576
- Compound: "CC1(C)CCC(c2ccc(Cl)cc2)=C(CN2CCN(c3ccc(C(=O)NS(=O)(=O)c4ccc(N[C@H](CCN5CCOCC5)CSc5ccccc5)c(S(=O)(=O)C(F)(F)F)c4)cc3)CC2)C1 [Navitoclax] + NC(=O)Nc1cc(-c2cccc(F)c2)sc1C(=O)N[C@H]1CCCNC1 [AZD7762] (partner 0.2 µM)"
  relative viability: 0.667
- Compound: "CC1(C)CCC(c2ccc(Cl)cc2)=C(CN2CCN(c3ccc(C(=O)NS(=O)(=O)c4ccc(N[C@H](CCN5CCOCC5)CSc5ccccc5)c(S(=O)(=O)C(F)(F)F)c4)cc3)CC2)C1 [Navitoclax] + CC(C)C[C@H](NC(=O)[C@H](Cc1ccccc1)NC(=O)c1cnccn1)B(O)O [Bortezomib] (partner 0.002 µM)"
  relative viability: 0.469
- Compound: "CC1(C)CCC(c2ccc(Cl)cc2)=C(CN2CCN(c3ccc(C(=O)NS(=O)(=O)c4ccc(N[C@H](CCN5CCOCC5)CSc5ccccc5)c(S(=O)(=O)C(F)(F)F)c4)cc3)CC2)C1 [Navitoclax] + Cc1nc(Nc2ncc(C(=O)Nc3c(C)cccc3Cl)s2)cc(N2CCN(CCO)CC2)n1 [Dasatinib] (partner 0.075 µM)"
  relative viability: 0.381
- Compound: "CC1(C)CCC(c2ccc(Cl)cc2)=C(CN2CCN(c3ccc(C(=O)NS(=O)(=O)c4ccc(N[C@H](CCN5CCOCC5)CSc5ccccc5)c(S(=O)(=O)C(F)(F)F)c4)cc3)CC2)C1 [Navitoclax] + CS(=O)(=O)N1CCN(Cc2cc3nc(-c4cccc5[nH]ncc45)nc(N4CCOCC4)c3s2)CC1 [Pictilisib] (partner 1 µM)"
  relative viability: 0.205
- Compound: "CC1(C)CCC(c2ccc(Cl)cc2)=C(CN2CCN(c3ccc(C(=O)NS(=O)(=O)c4ccc(N[C@H](CCN5CCOCC5)CSc5ccccc5)c(S(=O)(=O)C(F)(F)F)c4)cc3)CC2)C1 [Navitoclax] + Cc1nc(NC(=O)N2CCC[C@H]2C(N)=O)sc1-c1ccnc(C(C)(C)C(F)(F)F)c1 [Alpelisib] (partner 2 µM)"
  relative viability: 0.339
